Test system: 5637 (Bladder Carcinoma)
Experiment: combination Emax (second highest fraction inhibited in the dose matrix, 72 h); higher = more inhibition; extreme values may be limits of the assay
Each entry below carries its reported combination Emax.

[
  {
    "compound": "CN(CCO)CC[C@H](CSc1ccccc1)Nc1ccc(S(=O)(=O)NC(=O)c2ccc(N3CCC([C@@H](O)c4ccccc4-c4ccc(Cl)cc4)CC3)cc2)cc1S(=O)(=O)C(F)(F)F [AZD4320] + C[C@@H](Nc1cc(F)cc(F)c1)c1cc(C(=O)N(C)C)cc2c(=O)cc(N3CCOCC3)oc12 [AZD8186] (first compound max 1 µM, 7x7, partner max 3 µM)",
    "combination Emax": 0.672
  },
  {
    "compound": "Cc1c2c(nn1C)CSCc1cc(n(C)n1)CSc1cc(c3ccccc3c1)OCCCc1c(C(=O)O)n(C)c3c-2c(Cl)ccc13 [AZD5991] + C[C@@H](Nc1cc(F)cc(F)c1)c1cc(C(=O)N(C)C)cc2c(=O)cc(N3CCOCC3)oc12 [AZD8186] (first compound max 1 µM, 7x7, partner max 3 µM)",
    "combination Emax": 0.25
  }
]
